Assay: Solubilities in water (20° C.)
Type: physicochemical
Settings: 20 °C, water
experimental_endpoint: solubility
Be sure to follow the number with its unit.

The measured solubility associated with NCCCC[C@H](N)C(=O)O [Lysine] reads 640 mg/mL
